# TARGET OF ASSAY: hERG channel (Homo sapiens, UniProt Q12809)
# Construct: expressed in transfected cells; host or cells: HEK293
# Sequence (Q12809 whole entry): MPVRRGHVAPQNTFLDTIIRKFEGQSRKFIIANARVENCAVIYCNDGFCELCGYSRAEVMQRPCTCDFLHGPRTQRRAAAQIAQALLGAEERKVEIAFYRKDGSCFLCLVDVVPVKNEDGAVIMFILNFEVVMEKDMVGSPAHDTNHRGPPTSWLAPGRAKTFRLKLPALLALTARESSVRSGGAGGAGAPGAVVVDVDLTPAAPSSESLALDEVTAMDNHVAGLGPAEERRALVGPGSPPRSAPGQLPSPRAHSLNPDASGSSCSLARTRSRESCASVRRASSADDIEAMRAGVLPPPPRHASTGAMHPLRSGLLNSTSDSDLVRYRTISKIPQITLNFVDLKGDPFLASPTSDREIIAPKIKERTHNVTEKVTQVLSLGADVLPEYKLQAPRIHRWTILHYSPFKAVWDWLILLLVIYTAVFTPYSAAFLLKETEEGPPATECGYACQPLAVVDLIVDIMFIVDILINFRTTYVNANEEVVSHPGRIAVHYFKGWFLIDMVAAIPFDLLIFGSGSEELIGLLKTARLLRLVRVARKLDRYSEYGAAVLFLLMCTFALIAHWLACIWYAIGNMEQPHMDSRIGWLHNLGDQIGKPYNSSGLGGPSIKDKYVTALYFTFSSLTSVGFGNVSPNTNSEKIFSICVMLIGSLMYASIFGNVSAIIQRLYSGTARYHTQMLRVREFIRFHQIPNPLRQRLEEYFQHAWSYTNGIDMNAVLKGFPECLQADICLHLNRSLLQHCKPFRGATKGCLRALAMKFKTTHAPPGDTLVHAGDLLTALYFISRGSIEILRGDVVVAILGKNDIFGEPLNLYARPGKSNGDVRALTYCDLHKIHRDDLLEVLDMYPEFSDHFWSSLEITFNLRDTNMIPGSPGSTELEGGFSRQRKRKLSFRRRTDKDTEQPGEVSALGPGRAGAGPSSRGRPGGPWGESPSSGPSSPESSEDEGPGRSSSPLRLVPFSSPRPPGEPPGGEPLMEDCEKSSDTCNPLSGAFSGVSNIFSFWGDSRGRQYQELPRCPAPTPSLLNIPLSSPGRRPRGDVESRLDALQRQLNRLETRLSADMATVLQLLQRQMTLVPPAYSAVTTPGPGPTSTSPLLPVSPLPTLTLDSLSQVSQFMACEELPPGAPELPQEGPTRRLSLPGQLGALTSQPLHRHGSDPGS
# PROCEDURE DETAILS: hERG test (whole-cell patch clamp)
# Type: cell-based
# CONDITIONS: HEK293 cells that express hERG, 5 μM test compound for 7 minutes, peak tail current, read-out: Inhibition Rate (%)
inhibition at 7 min, 5 µM listing for selected compounds.
OBSERVED PROPERTY: inhibition at 7 min, 5 µM (%)

| COMPOUND | TEST VALUE |
| --- | --- |
| CO/C(N)=N\C1(c2cccc(NC(=O)c3cnc(OC)cn3)c2)CC1 [Compound 45] | 2.5 |
| CS/C(N)=N\Cc1cccc(NC(=O)c2cnc(C)cn2)c1 [Compound 18] | 10.8 |
| CC#CCOc1cnc(C(=O)Nc2cccc(C/N=C(/N)SC)c2)cn1 [Compound 3] | 67.6 |
| CC#CCOc1cnc(C(=O)Nc2ccc(F)c(C3(/N=C(/N)SC)CC3)c2)cn1 [Compound 15] | 31.5 |
| CN(C)CCCO/C(N)=N/Cc1cccc(NC(=O)c2ccc(C#N)cn2)c1 [Compound 38] | 8.4 |
| CS/C(N)=N\C1(c2cc(NC(=O)c3ccc(C#N)cn3)ccc2F)CC1 [Compound 1] | 63.8 |
| CS/C(N)=N\c1cccc2ccc(NC(=O)c3ccc(C#N)cn3)cc12 [Compound 28] | 60.4 |
| CS/C(N)=N\C1(c2cccc(NC(=O)c3cnc(C)cn3)c2)CCCC1 [Compound 30] | 14.1 |
